Biological target: recombinant human PKLR (Homo sapiens)
Construct: His (N); purchased R&D Systems
Sequence (P30613 whole entry): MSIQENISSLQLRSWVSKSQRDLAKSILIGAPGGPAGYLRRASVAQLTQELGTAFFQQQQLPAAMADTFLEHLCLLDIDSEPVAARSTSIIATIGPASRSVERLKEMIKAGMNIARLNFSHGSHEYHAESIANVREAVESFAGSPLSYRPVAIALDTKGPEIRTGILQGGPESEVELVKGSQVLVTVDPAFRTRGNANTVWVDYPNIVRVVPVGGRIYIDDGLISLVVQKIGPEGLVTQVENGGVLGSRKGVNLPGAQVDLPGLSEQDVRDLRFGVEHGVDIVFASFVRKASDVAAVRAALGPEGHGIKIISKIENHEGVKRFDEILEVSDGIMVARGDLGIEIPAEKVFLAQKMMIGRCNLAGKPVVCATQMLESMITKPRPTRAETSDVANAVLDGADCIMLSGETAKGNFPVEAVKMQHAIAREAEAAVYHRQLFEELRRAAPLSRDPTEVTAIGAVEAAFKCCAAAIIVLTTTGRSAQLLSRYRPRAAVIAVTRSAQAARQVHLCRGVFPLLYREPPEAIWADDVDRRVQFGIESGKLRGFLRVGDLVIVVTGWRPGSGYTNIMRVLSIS
Experiment: Human PKLR activation assay (Kinase-Glo Plus luminescent detection of generated ATP)
Format: biochemical
Settings: percentage activation normalised to DMSO vehicle (LOW) and 5 μM TEPP-46 (HIGH) controls; read-out: hPKLR Emax (%)
measured.parameter: Emax (%)

given.smiles	target	result.unit	Emax
O=c1c2ccc(S(=O)(=O)c3cnn(C4CC4)c3)cc2cnn1Cc1cccnc1O	recombinant human PKLR (Homo sapiens)	%	111
O=c1c2ccc(S(=O)(=O)c3ccc4c(c3)CCO4)cc2cnn1Cc1cc[nH]n1	recombinant human PKLR (Homo sapiens)	%	123
COc1ccc(S(=O)(=O)c2ccc3c(=O)n(Cc4ccn(C5CC5)n4)ncc3c2)cc1	recombinant human PKLR (Homo sapiens)	%	159
COc1ccc(S(=O)(=O)c2ccc3c(=O)n(Cc4cc(C)[nH]n4)ncc3c2)cc1	recombinant human PKLR (Homo sapiens)	%	142
Cc1cccc(Cn2ncc3cc(S(=O)(=O)c4cnn(C5COC5)c4)ccc3c2=O)n1	recombinant human PKLR (Homo sapiens)	%	136
Cc1cc(Cn2ncc3cc(S(=O)(=O)c4ccccc4)ccc3c2=O)nn1C	recombinant human PKLR (Homo sapiens)	%	139
COc1ccc(S(=O)(=O)c2ccc3c(=O)n(Cc4cccc(N)c4)ncc3c2)cc1	recombinant human PKLR (Homo sapiens)	%	108
O=c1c2ccc(S(=O)(=O)c3ccccc3)cc2cnn1Cc1n[nH]cc1F	recombinant human PKLR (Homo sapiens)	%	118

* * *

Molecular target: recombinant human PKM2 (Homo sapiens, UniProt P14618)
Construct: His (N); purchased R&D Systems
Sequence (P14618 2-531 limits assumed): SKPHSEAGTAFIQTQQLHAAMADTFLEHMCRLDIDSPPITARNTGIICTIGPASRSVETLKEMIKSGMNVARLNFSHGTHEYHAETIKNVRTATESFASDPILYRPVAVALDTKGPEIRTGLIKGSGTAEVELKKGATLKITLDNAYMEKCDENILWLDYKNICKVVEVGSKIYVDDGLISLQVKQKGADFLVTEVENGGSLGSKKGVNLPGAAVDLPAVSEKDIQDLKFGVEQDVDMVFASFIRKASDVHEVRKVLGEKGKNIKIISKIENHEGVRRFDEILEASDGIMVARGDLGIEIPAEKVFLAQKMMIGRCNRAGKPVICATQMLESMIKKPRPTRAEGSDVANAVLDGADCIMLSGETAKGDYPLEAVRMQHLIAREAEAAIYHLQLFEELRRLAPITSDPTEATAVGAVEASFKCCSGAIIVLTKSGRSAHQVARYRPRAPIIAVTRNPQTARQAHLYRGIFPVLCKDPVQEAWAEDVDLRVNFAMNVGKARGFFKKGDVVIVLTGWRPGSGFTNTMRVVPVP
Test: Human PKM2 activation assay (Kinase-Glo Plus luminescent detection of generated ATP)
Assay type: biochemical
Conditions: percentage activation normalised to DMSO vehicle (LOW) and 5 μM TEPP-46 (HIGH); read-out: hPKM2 Emax
measured.parameter: Emax (%)

molecule	target	data.value
N=[S@@](=O)(c1cn[nH]c1)c1ccc2c(=O)n(Cc3ccc4c(n3)CCO4)ncc2c1 (stereo in doubt)	recombinant human PKM2 (Homo sapiens, UniProt P14618)	114
O=c1c2ccc(S(=O)(=O)c3cnc4occc4c3)cc2cnn1Cc1cc[nH]n1	recombinant human PKM2 (Homo sapiens, UniProt P14618)	114
Cc1nc(S(=O)(=O)c2ccc3c(=O)n(Cc4cc5n(n4)CCO5)ncc3c2)cs1	recombinant human PKM2 (Homo sapiens, UniProt P14618)	100
Cc1nc(Cn2ncc3cc(S(=O)(=O)c4cn[nH]c4)ccc3c2=O)c(F)cc1F	recombinant human PKM2 (Homo sapiens, UniProt P14618)	104

* * *

Target: recombinant human PKM2 (Homo sapiens, UniProt P14618)
Construct: His (N); purchased R&D Systems
Test: Human PKM2 activation assay (Kinase-Glo Plus luminescent detection of generated ATP)
Format: biochemical
Settings: recombinant human PKM2 activation; 4-parameter logistic fit; read-out: hPKM2 EC50
measured.parameter: EC50 (nM)

Completed entries (count: 4):
compound	target	data.value
COc1ccc(Cn2ncc3cc(S(=N)(=O)c4ccc(OC(F)F)cc4)ccc3c2=O)cn1 (racemic) [Example 134]	recombinant human PKM2 (Homo sapiens, UniProt P14618)	88.1
Cc1cccc(Cn2ncc3cc(S(=O)(=O)c4csc([C@H](C)O)n4)ccc3c2=O)n1 (single isomer, unassigned) [Example 297]	recombinant human PKM2 (Homo sapiens, UniProt P14618)	103
COc1ccc(F)c(Cn2ncc3cc(S(=O)(=O)c4ccn(C)n4)ccc3c2=O)c1 [Example 199]	recombinant human PKM2 (Homo sapiens, UniProt P14618)	109
COc1ccc(S(=O)(=O)c2ccc3c(=O)n(Cc4ccc(OC)nc4)ncc3c2)nc1 [Example 172]	recombinant human PKM2 (Homo sapiens, UniProt P14618)	61.9

P: Cn1ccc(Cn2ncc3cc(S(=O)(=O)c4ccccc4)c(NCCO)cc3c2=O)n1 [Example 244]
Q: Cc1c[nH]nc1Cn1ncc2cc(S(=O)(=O)c3ccc4c(c3)CCO4)ccc2c1=O [Example 208]
R: O=c1c2ccc(S(=O)(=O)c3cc[nH]n3)cc2cnn1Cc1ccn(C2CC2)n1 [Example 339]
S: COc1ccc(Cn2ncc3cc(S(=O)(=O)c4cccc(Cl)c4)ccc3c2=O)cn1 [Example 154]
Query block: Given 4 compounds, produce a descending ranking by EC50. Answer by writing out the labels in the requested order.
Result block: P, S, R, Q

I: Cc1cccc(Cn2ncc3cc(S(=O)(=O)c4cnn(C)c4)ccc3c2=O)n1 [Example 204]
II: N=S(=O)(c1cn[nH]c1)c1ccc2c(=O)n(Cc3ccc4c(n3)CCO4)ncc2c1 (stereo not shown) [Example 341]
Query block: Compare reported EC50 values for I and II . Which is lower? Provide the label of your selected option as the answer.
Result block: II
